tested on: biotinyl-Trp-oxazolone; assay: self-aminoacylation, catalytic enhancement (BWO) (fold over background); higher = more active; k-Seq, kA / k0A0; sequences stand for … in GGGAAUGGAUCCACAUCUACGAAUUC…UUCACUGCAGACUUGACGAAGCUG
Variants at the floor of the assay were thinned out.
PARAMETER: self-aminoacylation
// print number alone

These recorded examples may help you get a feel for the data.
{"columns": ["SEQUENCE_ENTRY", "self-aminoacylation"],
 "data": [
  ["AAGUUUGCUAAUUGUCGCAUG [Fam3.1 aminoacylation ribozyme variant]", 1.49],
  ["AAGUUUGCAAAUAGUCACAAG [Fam3.1 aminoacylation ribozyme variant]", 0.887],
  ["AAGUUUCCUAUUAGUCGCAAG [Fam3.1 aminoacylation ribozyme variant]", 1.35],
  ["CCACAGUUCAAGCAAUCAGUC [Fam1B.1 aminoacylation ribozyme variant]", 0.814],
  ["GUACUUCAAAGAAUCGGUCUG [Fam1A.1 aminoacylation ribozyme variant]", 4.9]
]}

Could you share what self-aminoacylation was measured for AUUCACUUAGGUGAUCGGGUG [Fam2.2 aminoacylation ribozyme variant] , tested on biotinyl-Trp-oxazolone?
3.03

Under biotinyl-Trp-oxazolone: self-aminoacylation value of CCACACUUCAAGCAGUCGGUC [Fam1B.1 aminoacylation ribozyme variant] ?
0.712

Give recorded self-aminoacylation with biotinyl-Trp-oxazolone for the following sequence: AUUACCAUAGUCAUCGAGUGA [Fam2.1 aminoacylation ribozyme variant]
9.11

What value of self-aminoacylation on biotinyl-Trp-oxazolone does AUUACCCUGGUAAUAGAGUGA [Fam2.1 aminoacylation ribozyme variant] have?
17.9

Query self-aminoacylation on biotinyl-Trp-oxazolone for CGUCUUCAAACAAUCGGUCUG [Fam1A.1 aminoacylation ribozyme variant]
33.5

Request body: readout self-aminoacylation, system biotinyl-Trp-oxazolone, query AUUUAUCUAGGUCAUCGGGUG [Fam2.2 aminoacylation ribozyme variant] . Return the value.
4.3

// map CUACUUCAAGCGAUCGGUCUG [Fam1A.1 aminoacylation ribozyme variant] to recorded self-aminoacylation (system: biotinyl-Trp-oxazolone)
0.654

Return self-aminoacylation measured with biotinyl-Trp-oxazolone given this sequence: AUUACCCUGGUCAUCGGGUCA [Fam2.1 aminoacylation ribozyme variant]
9.71

Reported self-aminoacylation for biotinyl-Trp-oxazolone, given AAGUUUGCUAGUAGUCGCAAG [Fam3.1 aminoacylation ribozyme variant] ?
0.851

* * *

test system: biotinyl-Ile-oxazolone; experiment: self-aminoacylation, catalytic enhancement (BIO) (fold over background); higher = more active; k-Seq, kA / k0A0; sequences stand for … in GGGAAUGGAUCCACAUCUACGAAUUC…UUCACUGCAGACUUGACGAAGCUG
This sample holds only a part of the variants without activity.
Label scheme for self-aminoacylation: lower than 1 is F, 1 and above is T.

# example entries with known answers
{"columns": ["SEQUENCE_ENTRY", "CATEGORY"],
 "data": [
  ["UCACACUUCAAGCUAUCGGUC [Fam1B.1 aminoacylation ribozyme variant]", "F"],
  ["AACUUUGCUAAUAGUCGCAAU [Fam3.1 aminoacylation ribozyme variant]", "T"],
  ["CUAUUUGAAACAAUCGGUCUG [Fam1A.1 aminoacylation ribozyme variant]", "F"],
  ["AUUCACCUGGGUCAUCGGGUG [Fam2.2 aminoacylation ribozyme variant]", "T"],
  ["AUUCACCGUGGUCAUCGGGUG [Fam2.2 aminoacylation ribozyme variant]", "T"],
  ["AUUUAACUAGGUCAUCGGGUG [Fam2.2 aminoacylation ribozyme variant]", "T"],
  ["CUACUUCAAUCAAUCGGUGUG [Fam1A.1 aminoacylation ribozyme variant]", "T"],
  ["UUUACCCUUGUCAUCGAGUGA [Fam2.1 aminoacylation ribozyme variant]", "T"]
]}

Tell me whether self-aminoacylation is at least 1 here: AUUACCCUCAUCAUCGAGUGA [Fam2.1 aminoacylation ribozyme variant]
T

Tell me whether self-aminoacylation is at least 1 here: AUUACCCUGGUCCUCGAGUGA [Fam2.1 aminoacylation ribozyme variant]
T

State whether the measured self-aminoacylation reaches 1, counting equality as reaching it, for UAGUUUGCGAAUAGUCGCAAG [Fam3.1 aminoacylation ribozyme variant]
T

Kindly determine if self-aminoacylation recorded for CUACUCUAAACAAUCGGUCUG [Fam1A.1 aminoacylation ribozyme variant] is above or exactly 1.
F

* * *

Reported self-aminoacylation values are given for each entry in this list.
system: biotinyl-Phe-oxazolone; assay: self-aminoacylation, catalytic enhancement (BFO) (fold over background); higher = more active; k-Seq, kA / k0A0; sequences stand for … in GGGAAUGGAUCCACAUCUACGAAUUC…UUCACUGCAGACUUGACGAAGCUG
This sample holds only a part of the variants without activity.

Example results:
{"columns": ["SEQUENCE_ENTRY", "self-aminoacylation"],
 "data": [
  ["AUCCACCAAGGUCAUCGGGUG [Fam2.2 aminoacylation ribozyme variant]", 68.2],
  ["GUACUUCAAACAAUCGAUCUG [Fam1A.1 aminoacylation ribozyme variant]", 1.72]
]}

Fill in: self-aminoacylation of CUACUUCAAACAAUAGGACUG [Fam1A.1 aminoacylation ribozyme variant] is ___
0.544

* * *

tested on: biotinyl-Trp-oxazolone; assay: self-aminoacylation, catalytic enhancement (BWO) (fold over background); higher = more active; k-Seq, kA / k0A0; sequences stand for … in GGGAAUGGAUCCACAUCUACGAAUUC…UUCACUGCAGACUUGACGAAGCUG
Variants at the floor of the assay were thinned out.
PARAMETER: self-aminoacylation
Please reply with the value in numeric form only.

Solved entries (count: 2):
{"columns": ["SEQUENCE_ENTRY", "ENDPOINT_RESULT"],
 "data": [
  ["CCACGCUUCAAGCGAUCGGUC [Fam1B.1 aminoacylation ribozyme variant]", 3.3],
  ["AAGUUUGCCAAUAGGCGCAAG [Fam3.1 aminoacylation ribozyme variant]", 0.799]
]}

Moving on to the next sequence.
Report self-aminoacylation for UCACACUUCAAGCAAUCGGUG [Fam1B.1 aminoacylation ribozyme variant] tested on biotinyl-Trp-oxazolone.
6.38

* * *

system: biotinyl-Val-oxazolone; experiment: self-aminoacylation, catalytic enhancement (BVO) (fold over background); higher = more active; k-Seq, kA / k0A0; sequences stand for … in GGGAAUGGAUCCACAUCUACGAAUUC…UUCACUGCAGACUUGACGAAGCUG
Fewer inactive variants are shown than the library holds.
PARAMETER: self-aminoacylation

Solved entries:
{"columns": ["SEQUENCE_ENTRY", "ENDPOINT_RESULT"],
 "data": [
  ["GUUAUCCUGGUCAUCGAGUGA [Fam2.1 aminoacylation ribozyme variant]", 5.41],
  ["AUUACCUUGGUCAGCGAGUGA [Fam2.1 aminoacylation ribozyme variant]", 3.08]
]}

For CCACACUACAAGGAAUCGGUC [Fam1B.1 aminoacylation ribozyme variant] , what is its reported self-aminoacylation?
1.03

State the recorded self-aminoacylation for this entry: CUACUUCAAACGAUCGGCCUG [Fam1A.1 aminoacylation ribozyme variant]
1.66

* * *

Entries annotated with measured self-aminoacylation
system: biotinyl-Val-oxazolone; assay: self-aminoacylation, catalytic enhancement (BVO) (fold over background); higher = more active; k-Seq, kA / k0A0; sequences stand for … in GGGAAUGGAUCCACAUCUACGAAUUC…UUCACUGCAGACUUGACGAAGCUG
This sample holds only a part of the variants without activity.
// return just the number, without any unit appended

{"columns": ["SEQUENCE_ENTRY", "ENDPOINT_RESULT"],
 "data": [
  ["CCACACUUCAAGCAAUCGGGA [Fam1B.1 aminoacylation ribozyme variant]", 1.8],
  ["CUUCACCUAAGUCAUCGGGUG [Fam2.2 aminoacylation ribozyme variant]", 5.22]
]}

So what's the measured self-aminoacylation for this one? CCACACUUCGAUCAAUCGGUC [Fam1B.1 aminoacylation ribozyme variant]
0.871

Request the reported self-aminoacylation associated with CCACACUUCAAUCAAACGGUC [Fam1B.1 aminoacylation ribozyme variant]
0.757

Look at this sequence and give its reported self-aminoacylation. ACACACCUCAAGCAAUCGGUC [Fam1B.1 aminoacylation ribozyme variant]
0.927

Entry AUUACCCUGGUCAUAGAGUUA [Fam2.1 aminoacylation ribozyme variant] : reported self-aminoacylation = ?
1.1

// returns reported self-aminoacylation for input CUACCUCAAACAAACGGUCUG [Fam1A.1 aminoacylation ribozyme variant]
1.03

# self-aminoacylation lookup, item CCACACUUCAAGCAAUCGGGG [Fam1B.1 aminoacylation ribozyme variant]
2.19

* * *

# self-aminoacylation per record follows
system: biotinyl-Leu-oxazolone; assay: self-aminoacylation, catalytic enhancement (BLO) (fold over background); higher = more active; k-Seq, kA / k0A0; sequences stand for … in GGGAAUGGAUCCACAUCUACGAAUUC…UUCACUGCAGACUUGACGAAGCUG
This sample holds only a part of the variants without activity.

Consider the following illustrative entries.
{"columns": ["SEQUENCE_ENTRY", "ASSAYED_TARGET", "self-aminoacylation"],
 "data": [
  ["AUUCACCUAGGUCAUCCGGUA [Fam2.2 aminoacylation ribozyme variant]", "biotinyl-Leu-oxazolone", 2.3],
  ["AUUCCCCUAGGUCAUUGGGUG [Fam2.2 aminoacylation ribozyme variant]", "biotinyl-Leu-oxazolone", 15.6],
  ["ACUCACCUAGGUCCUCGGGUG [Fam2.2 aminoacylation ribozyme variant]", "biotinyl-Leu-oxazolone", 5.78],
  ["AUUCUUCAAACAAUCGGUCUG [Fam1A.1 aminoacylation ribozyme variant]", "biotinyl-Leu-oxazolone", 0.682],
  ["CCAAUUCAAACAAUCGGUCUG [Fam1A.1 aminoacylation ribozyme variant]", "biotinyl-Leu-oxazolone", 1.16],
  ["AGGUUUGCUGAUAGUCGCAAG [Fam3.1 aminoacylation ribozyme variant]", "biotinyl-Leu-oxazolone", 1.83],
  ["AUUCUCCUAGGUCAUCUGGUG [Fam2.2 aminoacylation ribozyme variant]", "biotinyl-Leu-oxazolone", 5.43],
  ["CUACGUCAAACAGUCGGUCUG [Fam1A.1 aminoacylation ribozyme variant]", "biotinyl-Leu-oxazolone", 1.75],
  ["AUUCGCCUAGGUCAUCGGGUU [Fam2.2 aminoacylation ribozyme variant]", "biotinyl-Leu-oxazolone", 20.5],
  ["AAGUUCGCCAAUAGUCGCAAG [Fam3.1 aminoacylation ribozyme variant]", "biotinyl-Leu-oxazolone", 2.67]
]}

Let us move to another entry and its self-aminoacylation.
I would be grateful if you could share the reported self-aminoacylation for AGGUUCGCUAAUAGUCGCAAG [Fam3.1 aminoacylation ribozyme variant] .
3.26
